Entries and their half-life values follow.
assay: Half life in Sprague-Dawley rat at 5 mg/kg, po measured upto 36 hrs by LC-MS/MS analysis; type: ADME, organism-based; conditions: in vivo
Supply the numeric figure in h, leaving out any unit text.

N#Cc1ccc(Nc2cnccc2SCc2ccccc2C(=O)[O-])c2ccccc12.[Na+] ... 5.14

query: Which value of half-life has been reported for "CC(C)(Sc1ccncc1-c1ccc(C#N)c2ccccc12)C(=O)[O-].[Na+]" in the records?
result: 4.01

###

assay: Cmax in Sprague-Dawley rat at 5 mg/kg, po measured upto 36 hrs by LC-MS/MS analysis; assay type: ADME, organism-based; design: time < 36 hrs, dose 5 mg/kg, route po; conditions: in vivo
Listing: Cmax of selected molecules
Could you give me the number in µg/mL? Just the number is fine.

CC(C)(Sc1ccncc1-c1ccc(C#N)c2ccccc12)C(=O)[O-].[Na+] ... 7.21

Moving on to the next molecule.
query: Any idea what its Cmax is? The molecule is "N#Cc1ccc(Nc2cnccc2SCc2ccccc2C(=O)[O-])c2ccccc12.[Na+]"
result: 7.65
